# experimentalTarget: urokinase (Homo sapiens)
# Construct: human high molecular weight urokinase; purchased American Diagnostica, Greenwich, Conn
# assayText: Urokinase Indirect (Plasminogen-Linked) Assay
# Type: biochemical
# testSettings: Table 3 column 4, simple number, unit inferred; read-out: uPA Indirect (plasminogen-linked) IC50
Counter-ions that a name gives are not always drawn.
measurementLabel: IC50 (nM)
Numbers only here, please. The scale is nM.

Answered cases to consult:
[
  {
    "molecule": "CSc1cccc2sc(C(=N)N)cc12.Cl [Compound 58, hydrochloride]",
    "measurementUnit": "nM",
    "IC50": 560
  },
  {
    "molecule": "COc1ccc2sc(C(=N)N)cc2c1Br.Cl [Compound 204, hydrochloride]",
    "measurementUnit": "nM",
    "IC50": 1700
  },
  {
    "molecule": "CCCCCCc1cccc2sc(C(=N)N)cc12.Cl [Compound 13, hydrochloride]",
    "measurementUnit": "nM",
    "IC50": 420
  },
  {
    "molecule": "Cl.N=C(N)c1cc2ccc3ccccc3c2s1 [Compound 312, hydrochloride]",
    "measurementUnit": "nM",
    "IC50": 1900
  },
  {
    "molecule": "N=C(N)c1ccc(-c2ccc(-c3cccc4sc(C(=N)N)cc34)o2)cc1 [Compound 53, bis-hydrochloride]",
    "measurementUnit": "nM",
    "IC50": 92
  },
  {
    "molecule": "N=C(N)c1cc2cc(C=CC3CC3)ccc2s1 [Compound 121, hydrochloride]",
    "measurementUnit": "nM",
    "IC50": 560
  },
  {
    "molecule": "CC(C)/C=C/c1cccc2sc(C(=N)N)cc12.Cl [Compound 23, hydrochloride]",
    "measurementUnit": "nM",
    "IC50": 130
  }
]

Would you kindly look at the next entry?
Query block: Would you mind telling me what IC50 value was observed for Cl.N=C(N)c1cc2c(-c3ccc(-c4ccccc4)o3)cccc2s1 [Compound 78, hydrochloride] ?
Result block: 490
